assay: p53 small molecule agonists, cell-based qHTS assay (AID 1963582); details: HCT-116 p53RE-bla reporter, beta-lactamase FRET ratio, 16 h; series mostly up to 66 µM
Inconclusive results are not listed. Active and inactive are the calls of the source. The call rests on the fitted dose curve; in most records, active means well fitted activation curve with a large enough effect in the signal ratio in the repeat runs (not every such curve was filed as active); inconclusive means weak or mixed curves; inactive means flat fitted curve, though single readings scatter; the % refers to the signal ratio.

{"columns": ["molecule", "outcome"],
 "data": [
  ["CCCCCCCCCCCCCC[N+](C)(C)Cc1ccccc1", "inactive"],
  ["O=C1CCCCCN1", "inactive"],
  ["Cc1ccc2ncccc2c1", "inactive"],
  ["CC1(C)C(=O)N(Cl)C(=O)N1Cl", "inactive"],
  ["CC(=O)CCc1ccccc1", "inactive"],
  ["NC(=O)NO", "inactive"],
  ["O=C1c2c(O)cccc2Cc2cccc(O)c21", "inactive"],
  ["CCCCOC(=O)CCCCCCCCC(=O)OCCCC", "inactive"],
  ["ClC1=C(Cl)C(Cl)(Cl)C(Cl)=C1Cl", "inactive"],
  ["O=C1OC2(c3ccccc31)c1cc(I)c(O)c(I)c1Oc1c2cc(I)c(O)c1I", "inactive"],
  ["Cc1cc(=O)oc2cc(O)ccc12", "inactive"],
  ["CC(C)[N+](C)(CCOC(=O)C1c2ccccc2Oc2ccccc21)C(C)C", "inactive"],
  ["CC(C)(C)C1CCC(O)CC1 (stereo not drawn)", "inactive"],
  ["CN1C(C(=O)Nc2ccccn2)=C(O)c2ccccc2S1(=O)=O", "inactive"],
  ["CC(C)OP(=O)(CP(=O)(OC(C)C)OC(C)C)OC(C)C", "inactive"],
  ["CCCCCCCCCCCCCCCO", "inactive"],
  ["CC(=O)c1nccs1", "inactive"],
  ["CC(=O)[C@H]1CC[C@H]2[C@@H]3CC=C4C[C@@H](O)CC[C@]4(C)[C@H]3CC[C@]12C", "inactive"],
  ["Cc1ccc([N+](=O)[O-])c(C)c1", "inactive"],
  ["Oc1ccc(Cc2ccccc2O)cc1", "inactive"],
  ["O=c1c(O)c(-c2ccc(O)cc2)oc2cc(O)cc(O)c12", "inactive"],
  ["CC1=NN(c2ccccc2)C(=O)C1", "inactive"],
  ["CNC[C@H](O)[C@@H](O)[C@H](O)[C@H](O)CO", "inactive"],
  ["c1ccc2c(c1)[nH]c1ccccc12", "inactive"],
  ["COCCCN", "inactive"],
  ["NC(=O)/N=N/C(N)=O", "inactive"],
  ["CC(O)COCC(C)O (stereo not drawn)", "inactive"],
  ["Nc1ccn([C@H]2CC[C@@H](CO)O2)c(=O)n1", "inactive"],
  ["O=C1CCC(N2C(=O)c3ccccc3C2=O)C(=O)N1 (stereo not drawn)", "inactive"],
  ["Nc1cccc(C(F)(F)F)c1", "inactive"],
  ["Cc1ncc[nH]1", "inactive"],
  ["Cc1cccc([N+](=O)[O-])c1C", "inactive"],
  ["c1ccc2cc(Nc3ccc(Nc4ccc5ccccc5c4)cc3)ccc2c1", "inactive"],
  ["Cc1ccc2c(c1)C(=O)OC2=O", "inactive"],
  ["C=CCCCCCCCCC(=O)O", "inactive"],
  ["CCC(O)OCCCOC (stereo not drawn)", "inactive"],
  ["Clc1ccc(Sc2cc(Cl)c(Cl)cc2Cl)cc1", "inactive"],
  ["CCN(CCN)c1cccc(C)c1", "inactive"],
  ["CCCCCCCC(=O)OC", "inactive"],
  ["CC1=C(C)S(=O)(=O)CCS1(=O)=O", "inactive"],
  ["COc1ccc(OC)cc1", "inactive"],
  ["C=CC(=O)OCCCC", "inactive"],
  ["C=C(C)C(=O)OCCC[Si](OC)(OC)OC", "inactive"],
  ["COc1cc([C@@H]2c3cc4c(cc3[C@H](O)[C@H]3COC(=O)[C@H]23)OCO4)cc(OC)c1OC", "inactive"],
  ["c1ccc2n[nH]nc2c1", "inactive"],
  ["CCCCCC(N)=O", "inactive"],
  ["CCCCOC(=O)COc1ccc(Cl)cc1Cl", "inactive"],
  ["Cc1ccc(S(=O)(=O)Oc2ccc(N=Nc3ccc(-c4ccc(N=Nc5c(O)ccc6cc(S(=O)(=O)O)cc(S(=O)(=O)O)c56)c(C)c4)cc3C)cc2)cc1", "inactive"],
  ["CC(C)(C)NC(=O)[C@H]1CC[C@H]2[C@@H]3CC[C@H]4NC(=O)C=C[C@]4(C)[C@H]3CC[C@]12C", "inactive"],
  ["CCC(C)C=O (stereo not drawn)", "inactive"],
  ["C/C=C/c1ccc(O)c(OC)c1", "inactive"],
  ["Cc1ccc(S(=O)(=O)O)cc1C", "inactive"],
  ["O=C1CCCCCCCCCCCN1", "inactive"],
  ["Nc1cccc(N)c1", "inactive"],
  ["COc1ccc(O)cc1", "inactive"],
  ["CC1(C)S[C@@H]2[C@H](NC(=O)COc3ccccc3)C(=O)N2[C@H]1C(=O)O", "inactive"],
  ["CC(=O)Nc1ccc(C(=O)O)cc1", "inactive"],
  ["CCCCOCCOCCOC(C)=O", "inactive"]
]}
